Tested on: ATP;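 further: ATP exposure 15 min at 22 °C before imaging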
test_summary: switch fluorescence ratio, 500 uM ATP over buffer (Cy3 cluster intensity, sum of 5 cycles each) (fold (ratio)); higher = stronger signal-on switching upon ATP binding; sequences stand for … in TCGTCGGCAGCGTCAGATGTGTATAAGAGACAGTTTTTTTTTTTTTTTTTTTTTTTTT…TC
test_parameters: aptamer strand: ATP DNA aptamer (quencher-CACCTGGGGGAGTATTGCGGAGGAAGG + anchor), 100 nM annealed; ATP concentration: 500 uM
// NOT MET strictly below 1 in switch fluorescence ratio; MET otherwise

Field: example entries. Status: answers known.
CAGTCTGCTC MET
AGGAAAGGCG MET

Prompt: Does the sequence `TTGGATTTTC` have recorded switch fluorescence ratio that is 1 or more?
Response: MET

Prompt: Does the sequence `GTTTGTTGGA` have recorded switch fluorescence ratio that is 1 or more?
Response: NOT MET

Prompt: Does the sequence `TCTTTCTGGG` have recorded switch fluorescence ratio that is 1 or more?
Response: MET

Prompt: Does the sequence `AGGGGATGGC` have recorded switch fluorescence ratio that is 1 or more?
Response: NOT MET

Prompt: Does the sequence `GTTTCGTAAT` have recorded switch fluorescence ratio that is 1 or more?
Response: MET

Prompt: Does the sequence `TTTATAATAT` have recorded switch fluorescence ratio that is 1 or more?
Response: MET

----------
System: ATP;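 further: ATP exposure 15 min at 22 °C before imaging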
test_summary: switch fluorescence ratio, 500 uM ATP over buffer (Cy3 cluster intensity, sum of 5 cycles each) (fold (ratio)); higher = stronger signal-on switching upon ATP binding; sequences stand for … in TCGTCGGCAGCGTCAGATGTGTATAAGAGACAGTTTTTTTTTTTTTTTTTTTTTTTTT…TC
test_parameters: aptamer strand: ATP DNA aptamer (quencher-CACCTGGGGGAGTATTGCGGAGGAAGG + anchor), 100 nM annealed; ATP concentration: 500 uM
Entries and their switch fluorescence ratio

TACCGCGTGG 1.03

Prompt: Fill in the blank: the reported switch fluorescence ratio of `CTTAGCCGGG` is ____.
Response: 0.981

Prompt: Fill in the blank: the reported switch fluorescence ratio of `ATCAGCAACG` is ____.
Response: 1.01

Prompt: Fill in the blank: the reported switch fluorescence ratio of `ATTTTTCGGC` is ____.
Response: 0.99

----------
Tested on: ATP;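 further: ATP exposure 15 min at 22 °C before imaging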
test_summary: switch fluorescence ratio, 500 uM ATP over buffer (Cy3 cluster intensity, sum of 5 cycles each) (fold (ratio)); higher = stronger signal-on switching upon ATP binding; sequences stand for … in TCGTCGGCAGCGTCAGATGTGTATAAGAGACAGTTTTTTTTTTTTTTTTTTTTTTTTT…TC
test_parameters: aptamer strand: ATP DNA aptamer (quencher-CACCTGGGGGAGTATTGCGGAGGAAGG + anchor), 100 nM annealed; ATP concentration: 500 uM
Entries and their switch fluorescence ratio
// response body must contain only the number

// worked examples, switch fluorescence ratio included
TTCTAAGGGA 1.01
CGAAGGTTTT 1.02
CTAGGGGATG 1.03
TGGCAGGGGT 1.56
AACTGGGGTA 0.977
TTTCTGGGGA 0.991

Prompt: Fill in the blank: the reported switch fluorescence ratio of `TTAGGTGTTA` is ____.
Response: 1.03

Prompt: Fill in the blank: the reported switch fluorescence ratio of `GATGGGGATG` is ____.
Response: 0.968

Prompt: Fill in the blank: the reported switch fluorescence ratio of `TATACGTTTT` is ____.
Response: 1.12
